# Test system: S. aureus A798
# Run Description: Bacterial growth minimal inhibitory concentration (microdilution, cation-adjusted Mueller-Hinton Broth)
# Type: cell-based, Staphylococcus aureus
# Experimental Context: Staphylococcus aureus, A798; multiply-resistant strain (methicillin- and quinolone-resistant)
Provide the reported MIC of each item.
The answer is to be given in µg/mL; state only the numeric part.

The compound CN1CC[C@H](Oc2cncc(-c3ccnc(CNCC[C@H]4CN(c5ccc6c(n5)NC(=O)CO6)C(=O)O4)c3)n2)C1 , when measured on S. aureus A798, yielded MIC of 1

The compound NCCOc1cncc(-c2cccc(CNCC[C@H]3CN(c4ccc5c(n4)NC(=O)CO5)C(=O)O3)c2)n1 , when measured on S. aureus A798, yielded MIC of 0.5

The compound NCCOc1nccc(-c2cccc(CNCC[C@H]3CN(c4ccc5c(n4)NC(=O)CO5)C(=O)O3)c2)n1 , when measured on S. aureus A798, yielded MIC of 4

The compound CN1CC[C@H](Oc2cccc(-c3ccnc(CNCC[C@H]4CN(c5ccc6c(n5)NC(=O)CO6)C(=O)O4)c3)n2)C1 , when measured on S. aureus A798, yielded MIC of 0.25

The compound NCCOc1cccc(-c2cccc(CNCC[C@H]3CN(c4ccc5c(n4)NC(=O)CO5)C(=O)O3)c2)c1 , when measured on S. aureus A798, yielded MIC of 2

The compound O=C1COc2ccc(N3C[C@H](CCNCc4cccc(-c5cc(O[C@@H]6CCNC6)ncn5)c4)OC3=O)nc2N1 , when measured on S. aureus A798, yielded MIC of 4

The compound O=C1COc2ccc(N3C[C@H](CCNCc4cccc(-c5nccc(O[C@@H]6CCNC6)n5)c4)OC3=O)nc2N1 , when measured on S. aureus A798, yielded MIC of 4

The compound NCCOc1cccc(-c2ccnc(CNCC[C@H]3CN(c4ccc5c(n4)NC(=O)CO5)C(=O)O3)n2)n1 , when measured on S. aureus A798, yielded MIC of 8

The compound CNCCOc1cccc(-c2cccc(CNCC[C@H]3CN(c4ccc5c(n4)NC(=O)CO5)C(=O)O3)c2)n1 , when measured on S. aureus A798, yielded MIC of 0.5

The compound NCCCCOc1cccc(-c2cccc(CNCC[C@H]3CN(c4ccc5c(n4)NC(=O)CO5)C(=O)O3)c2)c1 , when measured on S. aureus A798, yielded MIC of 2

The compound CN1CC[C@H](Oc2cncc(-c3cncc(CNCC[C@H]4CN(c5ccc6c(n5)NC(=O)CO6)C(=O)O4)c3)n2)C1 , when measured on S. aureus A798, yielded MIC of 4

The compound O=C1COc2ccc(N3C[C@H](CCNCc4cccc(-c5cccc(OC[C@@H]6CCCN6)n5)c4)OC3=O)nc2N1 , when measured on S. aureus A798, yielded MIC of 1

The compound O=C1COc2ccc(N3C[C@H](CCNCc4cccc(-c5cccc(O[C@H]6CCNC6)n5)c4)OC3=O)nc2N1 , when measured on S. aureus A798, yielded MIC of 0.5

The compound CN1CC(Oc2cccc(-c3cccc(CNCC[C@H]4CN(c5ccc6c(n5)NC(=O)CO6)C(=O)O4)n3)n2)C1 , when measured on S. aureus A798, yielded MIC of 1
